Target: Muscarinic acetylcholine receptor M4 (Homo sapiens)
Test: human M4 muscarinic receptor positive allosteric modulators, primary screen, CHO-K1 cells, Fluo-8 calcium fluorescence (AID 624126)
Details: CHO-K1 hM4/Gqi5, Fluo-8 calcium fluorescence, ACh EC20; at 3 µM; 0% = ACh EC20, 100% = maximal ACh
In all, about 360,000 compounds went through this assay and about 1,400 (0.39%) were called active.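 How the source made its calls: active means activation above its plate's cutoff, the mean activation of sample wells plus 3 SD; inactive means the rest.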 This is one part of a sample in which actives are shown more often than they occur.
Returns: one label drawn from active, inactive

Record request — test call for `CCN1C(=O)c2cccc3c(S(=O)(=O)Nc4ccccc4O)ccc1c23` active

# lookup: test call for `C/C(=N\NC(=O)c1cccc([N+](=O)[O-])c1)c1cccnc1` inactive

What classification did `COC(=O)[C@]12CCCCC=C1N(Cc1ccc3c(c1)OCO3)C(=O)[C@H](CC(=O)NCc1cccs1)C2` end up with in this test? inactive

---
// outcome(item) with item = `CC(C)NC(=O)N1Cc2cc(C(=O)NCC(F)(F)F)nc(-c3cccc(-c4cc5ccccc5o4)c3)c2[C@@H]1CCO` inactive

What did the test return for `Cc1ccccc1C(=O)NNC(=O)CN1C(=O)c2ccccc2C1=O` ? inactive

Entry `Cc1ccc(S(=O)(=O)CCC(=O)OCc2ccccc2)cc1` : call = ? inactive

Lab log entry: `Nc1nnc(C2CCCC2)s1` — outcome as called in the assay? inactive

Just curious, what result did `Cc1sc2ncnc(N3CCC(C(=O)NNC(=O)c4ccc(F)cc4)CC3)c2c1C` get here? inactive

# lookup: test call for `COc1ccc(C(=O)N/N=C2\CCS(=O)(=O)c3ccc(F)cc32)cc1OC` inactive

Assay result, entry `CCc1ccccc1OCC(=O)Nc1nnc(C2CC2)s1` — outcome? inactive

Values were extracted from PubChem BioAssay AID624126.
